// data source = ChEMBL document CHEMBL4813910

Test Details: Half life in human at 20 mg/kg, po measured up to 240 hrs by HPLC method
Format: ADME, organism-based
Conditions Used: in vivo
Property Label: half-life (h)
Numbers only, in h.

[ask] Sample Cc1cc2c(C(C)C)c(O)c(O)c(C=O)c2c(O)c1-c1c(C)cc2c(C(C)C)c(O)c(O)c(C=O)c2c1O [GOSSYPOL] — what was its half-life?
[reply] 133

----------
Test Details: Oral bioavailability in human at 0.03 mg/kg
Assay type: ADME, organism-based
Conditions Used: in vivo
Property Label: bioavailability
State the value, then name its unit.

[ask] Value lookup for bioavailability; key = CC(CC=O)CCCC(C)(C)O (stereo unspecified)
[reply] 100%

----------
Test Details: AUC (0 to infinity) in human at 20 mg, po measured up to 240 hrs by HPLC method
Assay type: ADME, organism-based
Parameters: route oral, dose 20 mg, time <=240
Conditions Used: in vivo
Property Label: AUC(0-inf) (µM·h)
Numbers only, in µM·h.

[ask] # input compound: Cc1cc2c(C(C)C)c(O)c(O)c(C=O)c2c(O)c1-c1c(C)cc2c(C(C)C)c(O)c(O)c(C=O)c2c1O [GOSSYPOL] ; wanted: its AUC(0-inf)
[reply] 29.2

----------
Test Details: Dermal bioavailability in human at 0.46 mg/kg
Format: ADME, organism-based
Conditions Used: in vivo, topical or ocular
Property Label: bioavailability (%)
Give bare numbers, in %.

[ask] Look up bioavailability for this compound: CC(CC=O)CCCC(C)(C)O (stereo unspecified)
[reply] 5

----------
Test Details: Drug metabolism in human assessed as Cmax of acid metabolite at 0.25%, OU administered once daily for 7 days
Assay type: ADME
Parameters: dose 0.25 %, time 7 day
Conditions Used: topical_or_ocular, 168 h
Property Label: Cmax (nM)
Numbers only, in nM.

[ask] So what does the record say about Cmax for CN1CCC(=C2c3ccccc3CCn3c(C=O)cnc32)CC1 ?
[reply] 6

----------
Test Details: Clearance in dog at 0.5 mg/kg, iv by HPLC method
Assay type: ADME, organism-based, Canis lupus familiaris
Conditions Used: in vivo
Property Label: clearance (mL/min/kg)
Give bare numbers, in mL/min/kg.

[ask] What value of clearance has been recorded for this entry: Cc1cc2c(C(C)C)c(O)c(O)c(C=O)c2c(O)c1-c1c(C)cc2c(C(C)C)c(O)c(O)c(C=O)c2c1O [GOSSYPOL]
[reply] 0.833

----------
Test Details: Tmax in human at 0.25%, OU administered once daily for 7 days
Type: ADME
Conditions Used: topical or ocular, time 7 day
Property Label: Tmax (min)
Give bare numbers, in min.

[ask] GET /values?readout=Tmax&item= CN1CCC(=C2c3ccccc3CCn3c(C=O)cnc32)CC1
[reply] 15

----------
Test Details: Half life in human plasma at 37 mg/kg, po by HPLC method
Format: ADME, organism-based
Property Label: half-life (h)
Give bare numbers, in h.

[ask] Value lookup for half-life; key = O=Cc1c(O)cccc1OCc1ccc(C(=O)O)cc1 [TUCARESOL]
[reply] 223

----------
Test Details: Cmax in human erythrocytes at 2.8 g, po by liquid chromatography-tandem mass spectrometry method
Assay type: ADME, organism-based, Erythrocyte
Parameters: route oral, dose 2.8 g
Property Label: Cmax (µM)
Numbers only, in µM.

[ask] Reported Cmax for CC(C)n1nccc1-c1ncccc1COc1cccc(O)c1C=O : what is it?
[reply] 1110

----------
Test Details: Protein binding in human plasma
Assay type: ADME, cell-free
Conditions Used: read-out: PPB (converted)
Property Label: fraction unbound
One number for each entry.

[ask] Looking for the measured fraction unbound of Cc1cc2c(C(C)C)c(O)c(O)c(C=O)c2c(O)c1-c1c(C)cc2c(C(C)C)c(O)c(O)c(C=O)c2c1O [GOSSYPOL] , can you help?
[reply] 0.61

----------
Test Details: Tmax in human at 4 mg, po
Format: ADME
Conditions Used: in vivo
Property Label: Tmax (h)
Give bare numbers, in h.

[ask] GET /values?readout=Tmax&item= Cc1ncc(CO)c(CO)c1O [PYRIDOXINE]
[reply] 1

----------
Test Details: Tmax in human erythrocytes at 37 mg/kg, po by HPLC method
Type: ADME, organism-based, Erythrocyte
Property Label: Tmax (h)
Numbers only, in h.

[ask] For O=Cc1c(O)cccc1OCc1ccc(C(=O)O)cc1 , what is its reported Tmax?
[reply] 24

----------
Test Details: Half life in human at 0.7 mg/kg, po
Type: ADME, organism-based
Conditions Used: in vivo
Property Label: half-life

[ask] # get_value(readout='half-life', item= O=C/C=C/c1ccccc1 )
[reply] < 4 h

----------
Test Details: AUC (0 to 24 hrs) in human erythrocytes at 37 mg/kg, po by HPLC method
Type: ADME, organism-based, Erythrocyte
Parameters: time < 24 hr, route oral, dose 37 mg/kg
Property Label: AUC(0-t) at 24 h (µM·h)
Answers are plain numbers, in µM·h.

[ask] Requested read-out: AUC(0-t) at 24 h. Entry: O=Cc1c(O)cccc1OCc1ccc(C(=O)O)cc1
[reply] 579

----------
Test Details: Cmax in human plasma at 2.8 g, po by liquid chromatography-tandem mass spectrometry method
Type: ADME, organism-based
Design: route oral, dose 2.8 g
Property Label: Cmax (µM)
Answers are plain numbers, in µM.

[ask] For the compound shown here, CC(C)n1nccc1-c1ncccc1COc1cccc(O)c1C=O , give the reported Cmax.
[reply] 18.7

----------
Test Details: Tmax in mouse at 3 mg/kg, po
Type: ADME, organism-based
Conditions Used: in vivo
Property Label: Tmax (h)
Answers are plain numbers, in h.

[ask] Param item = COCCNc1cc(NC(=O)N2CCCc3cc(CN4CCN(C)CC4=O)c(C=O)nc32)ncc1C#N ; retrieve measured Tmax.
[reply] 2

----------
Test Details: Drug metabolism in human assessed as pyridoxal-5-phosphate Cmax at 4 mg, po
Assay type: ADME
Design: route oral, dose 4 mg
Conditions Used: in vivo
Property Label: Cmax (nM)
Answers are plain numbers, in nM.

[ask] Looking for the measured Cmax of Cc1ncc(CO)c(CO)c1O [PYRIDOXINE] , can you help?
[reply] 30

----------
Test Details: Cmax in human at 4 mg, po
Format: ADME
Parameters: route oral, dose 4 mg
Conditions Used: in vivo
Property Label: Cmax (nM)
Numbers only, in nM.

[ask] Can you look up the measured Cmax of Cc1ncc(CO)c(CO)c1O [PYRIDOXINE] for me?
[reply] 60

----------
Test Details: Tmax in human at 20 mg/kg, po measured up to 30 hrs by HPLC method
Assay type: ADME, organism-based
Conditions Used: in vivo
Property Label: Tmax (h)
Give bare numbers, in h.

[ask] For the molecule Cc1cc2c(C(C)C)c(O)c(O)c(C=O)c2c(O)c1-c1c(C)cc2c(C(C)C)c(O)c(O)c(C=O)c2c1O [GOSSYPOL] , what Tmax is on record?
[reply] 4.6

----------
Test Details: Half life in human liver supernatant
Type: ADME, subcellular, Supernatent
Property Label: half-life

[ask] // returns reported half-life for input CN1CCC(=C2c3ccccc3CCn3c(C=O)cnc32)CC1 [ALCAFTADINE]
[reply] < 15 min

----------
Test Details: Half life in human at 20 mg/kg, po measured up to 30 hrs by HPLC method
Type: ADME, organism-based
Conditions Used: in vivo
Property Label: half-life
Write the numeric value and append its unit.

[ask] Entry under review: Cc1cc2c(C(C)C)c(O)c(O)c(C=O)c2c(O)c1-c1c(C)cc2c(C(C)C)c(O)c(O)c(C=O)c2c1O [GOSSYPOL] . Reported half-life?
[reply] 4.55 h

----------
Test Details: Half life in mouse plasma at 5 ug/ml incubated for 1 to 24 hrs by LC/MS/MS method
Assay type: ADME, cell-free
Conditions Used: time 1-24 hrs, dose 5 µg/ml
Property Label: half-life at 5 ug/ml

Return reported half-life at 5 ug/ml values for all items listed beneath this line.
1. Cc1cc2c(C(C)C)c(O)c(O)c(C=O)c2c(O)c1-c1c(C)cc2c(C(C)C)c(O)c(O)c(C=O)c2c1O
2. Cc1cc2c(C(C)C)c(O)c(O)cc2c(O)c1-c1c(C)cc2c(C(C)C)c(O)c(O)cc2c1O

[reply]
1: < 1 h; 2: < 1 h

----------
Test Details: Cmax in human at 20 mg/kg, po measured up to 30 hrs by HPLC method
Format: ADME, organism-based
Design: route oral, dose 20 mg/kg, time <=30
Conditions Used: in vivo
Property Label: Cmax (nM)
Give bare numbers, in nM.

[ask] What value of measured Cmax is listed for Cc1cc2c(C(C)C)c(O)c(O)c(C=O)c2c(O)c1-c1c(C)cc2c(C(C)C)c(O)c(O)c(C=O)c2c1O [GOSSYPOL] ?
[reply] 799

----------
Test Details: Drug excretion in human urine measured for 24 hrs
Type: ADME, tissue-based
Conditions Used: read-out: Drug excretion
Property Label: dose excreted at 24 h (%)
Answers are plain numbers, in %.

[ask] Report dose excreted at 24 h for CC(CC=O)CCCC(C)(C)O (stereo unspecified) please.
[reply] 94
